Target: T1, mStau2 dsRBD1-4 (Mus musculus, UniProt Q8CJ67 8-375)
T1 sequence: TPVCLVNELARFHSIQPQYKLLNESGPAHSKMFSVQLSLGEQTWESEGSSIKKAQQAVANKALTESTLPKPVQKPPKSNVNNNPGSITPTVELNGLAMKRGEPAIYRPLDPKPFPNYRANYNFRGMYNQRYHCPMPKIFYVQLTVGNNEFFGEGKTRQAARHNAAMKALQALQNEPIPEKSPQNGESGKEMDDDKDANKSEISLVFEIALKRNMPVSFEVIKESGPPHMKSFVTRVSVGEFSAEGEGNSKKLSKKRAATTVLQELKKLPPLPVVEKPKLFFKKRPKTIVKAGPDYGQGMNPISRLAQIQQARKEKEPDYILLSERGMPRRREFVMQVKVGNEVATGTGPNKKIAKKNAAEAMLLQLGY
Assay: SPR; Hill n 1.7; text says 330 nM; SPR: HBS-EP (10 mM HEPES pH 7.4, 150 mM NaCl, 3 mM EDTA, 0.005% P20); EMSA: 5 nM RNA, protein buffer (40 mM Bis-Tris pH 7, 150 mM NaCl, 2 mM DTT presumed), 4% glycerol, 30 ug/mL yeast tRNA, RT; NMR: 150 mM NaCl, 20 mM Na phosphate pH 7.0, 5 mM DTT, 298 K
Settings: protein: recombinant; tags: HisSUMO removed; label: 5' 32P (EMSA); biotin (SPR); imperfect hairpin, 26 bp with two bulges
EXPERIMENTAL_READOUT: Kd

Q. Suppose we examine the binder SRS* (SRS3) (structured_RNA) RNA: GGUAUGUGUGAAUGUGCAUGAAUAUAUAUAUAUAUGCAUAUAUAUAUUUGUAUAUGUUCACACAUG ; what Kd value has been reported?
A. 287 nM

Value source: paper PMC6477676
